# experimentalTarget: human Nav1.8/b3 (Homo sapiens)
# Construct: expressed in transfected cells; host or cells: CHO
# assayComment: Compound Profiling Human NaV1.8/β3 Cell Line—SyncroPatch384PE Assay (automated patch clamp, stably transfected CHO cells)
# Type: cell-based
# testSettings: P1 measurement, resting state block; Nav1.8/b3 CHO cells, holding potential −120 mV; third set of compounds; read-out: P1 (IC50, resting state block)
readoutKind: IC50

Record excerpt, results attached:
molecule="Cc1nc(F)ccc1Oc1ncc(C(F)F)c(C)c1C(=O)Nc1ccnc([S@](C)(=N)=O)c1 [Example 115C]" experimentaltarget="human Nav1.8/b3 (Homo sapiens)" readoutkind=IC50 recordedresult="> 200 nM"
molecule="Cc1nc(F)ccc1Oc1cnc(C(F)(F)F)c(Cl)c1C(=O)Nc1cccc([S@](C)(=N)=O)c1 [Example 45C]" experimentaltarget="human Nav1.8/b3 (Homo sapiens)" readoutkind=IC50 recordedresult="< 5 nM"

Note: attention shifts to another entry.
Sample Cc1nc(F)ccc1Oc1ncc(C(F)(F)F)c(C)c1C(=O)Nc1ccnc(C(N)=O)c1 [Example 120C] — what was its IC50? 5 to 50 nM

----------
# experimentalTarget: human Nav1.8/b3 (Homo sapiens, UniProt Q9Y5Y9)
# Construct: expressed in transfected cells; host or cells: CHO
# Sequence (Q9Y5Y9 whole entry): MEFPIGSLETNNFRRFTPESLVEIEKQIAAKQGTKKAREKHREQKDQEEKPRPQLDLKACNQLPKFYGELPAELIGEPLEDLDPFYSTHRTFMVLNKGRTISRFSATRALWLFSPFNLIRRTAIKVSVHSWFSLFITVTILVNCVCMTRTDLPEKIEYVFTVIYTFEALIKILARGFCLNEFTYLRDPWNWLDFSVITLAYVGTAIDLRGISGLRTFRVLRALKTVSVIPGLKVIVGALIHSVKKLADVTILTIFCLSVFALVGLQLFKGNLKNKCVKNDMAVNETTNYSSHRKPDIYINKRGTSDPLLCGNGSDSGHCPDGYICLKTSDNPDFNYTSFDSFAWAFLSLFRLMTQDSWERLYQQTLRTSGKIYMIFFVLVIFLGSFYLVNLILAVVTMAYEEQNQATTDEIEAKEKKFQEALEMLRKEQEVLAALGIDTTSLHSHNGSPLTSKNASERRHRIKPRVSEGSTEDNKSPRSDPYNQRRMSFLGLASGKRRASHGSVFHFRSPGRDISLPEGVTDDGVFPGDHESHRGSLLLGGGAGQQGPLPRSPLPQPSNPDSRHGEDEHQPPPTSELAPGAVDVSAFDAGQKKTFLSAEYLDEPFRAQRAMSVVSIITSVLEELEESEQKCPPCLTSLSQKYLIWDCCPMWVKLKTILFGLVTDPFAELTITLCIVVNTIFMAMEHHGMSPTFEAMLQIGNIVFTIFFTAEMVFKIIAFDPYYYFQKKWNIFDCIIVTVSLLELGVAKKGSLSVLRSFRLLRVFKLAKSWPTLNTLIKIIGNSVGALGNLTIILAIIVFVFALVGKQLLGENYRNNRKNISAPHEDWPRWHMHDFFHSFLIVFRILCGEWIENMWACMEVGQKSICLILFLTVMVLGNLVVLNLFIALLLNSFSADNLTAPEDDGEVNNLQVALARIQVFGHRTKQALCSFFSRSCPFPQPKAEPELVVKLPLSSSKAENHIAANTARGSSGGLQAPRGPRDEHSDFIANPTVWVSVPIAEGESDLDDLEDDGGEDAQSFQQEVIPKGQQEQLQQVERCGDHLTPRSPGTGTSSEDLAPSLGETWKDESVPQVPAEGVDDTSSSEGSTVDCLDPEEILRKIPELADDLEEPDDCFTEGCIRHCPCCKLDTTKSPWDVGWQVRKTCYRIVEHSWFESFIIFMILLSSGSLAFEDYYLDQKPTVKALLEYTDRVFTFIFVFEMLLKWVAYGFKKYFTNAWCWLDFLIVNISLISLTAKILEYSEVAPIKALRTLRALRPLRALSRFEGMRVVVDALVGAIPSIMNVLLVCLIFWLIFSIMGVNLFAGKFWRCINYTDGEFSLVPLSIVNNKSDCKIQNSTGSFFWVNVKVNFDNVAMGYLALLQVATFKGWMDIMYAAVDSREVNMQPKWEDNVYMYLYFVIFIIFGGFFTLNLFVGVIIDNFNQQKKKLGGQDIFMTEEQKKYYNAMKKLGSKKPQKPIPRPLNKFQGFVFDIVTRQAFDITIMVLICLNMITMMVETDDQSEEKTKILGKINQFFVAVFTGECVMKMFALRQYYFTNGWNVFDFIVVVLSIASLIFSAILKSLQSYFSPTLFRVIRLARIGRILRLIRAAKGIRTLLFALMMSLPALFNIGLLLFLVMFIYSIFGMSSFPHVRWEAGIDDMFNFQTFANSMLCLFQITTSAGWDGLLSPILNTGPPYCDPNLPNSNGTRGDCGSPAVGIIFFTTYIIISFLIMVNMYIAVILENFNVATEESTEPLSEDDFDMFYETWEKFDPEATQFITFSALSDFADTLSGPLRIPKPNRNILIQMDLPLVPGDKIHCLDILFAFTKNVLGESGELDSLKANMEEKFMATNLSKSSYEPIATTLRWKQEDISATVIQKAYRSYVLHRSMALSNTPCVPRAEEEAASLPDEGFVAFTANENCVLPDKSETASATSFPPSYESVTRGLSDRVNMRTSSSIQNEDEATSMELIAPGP
# Sequence (Q9NY72 23-215 partner): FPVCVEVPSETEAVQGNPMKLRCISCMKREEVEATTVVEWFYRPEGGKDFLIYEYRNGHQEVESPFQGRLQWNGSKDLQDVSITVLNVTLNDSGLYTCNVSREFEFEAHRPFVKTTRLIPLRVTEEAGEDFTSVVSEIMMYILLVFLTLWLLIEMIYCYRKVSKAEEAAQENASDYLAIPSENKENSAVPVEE
# assayComment: Compound Profiling Human NaV1.8/β3 Cell Line—SyncroPatch384PE Assay (automated patch clamp, stably transfected CHO cells)
# Type: cell-based
# testSettings: P2 (IC50, inactivated state block), P2 measurement, inactivated state block; Nav1.8/b3 CHO cells, inactivation step −35 mV 10 sec; third set of compounds
Overview of reported IC50 across a group of molecules:

molecule="Cc1nc(F)ccc1Oc1nc(C(F)(F)F)c(Cl)c(C)c1C(=O)Nc1ccc(F)c([S@@](C)(=N)=O)c1 [Example 94C]" recordedresult="0.005 to 0.05 µM"
molecule="Cc1nc(F)ccc1Oc1c(C(F)(F)F)ncc(F)c1C(=O)Nc1cccc([S@](C)(=N)=O)c1 [Example 36C]" recordedresult="> 0.2 µM"
molecule="Cc1nc(F)ccc1Oc1nnc(C(F)(F)F)c(C)c1C(=O)Nc1cccc(S(N)(=O)=O)c1 [Example 13C]" recordedresult="< 0.005 µM"
molecule="Cc1nc(F)ccc1Oc1ncc(C2CCCC2)c(C)c1C(=O)Nc1ccnc([S@](C)(=N)=O)c1 [Example 86C]" recordedresult="0.005 to 0.05 µM"
molecule="Cc1nc(F)ccc1Oc1ncc(C(F)(F)F)c(C)c1C(=O)Nc1cccc([S@@](C)(=O)=NCCN(C)C)c1 [Example 91C]" recordedresult="< 0.005 µM"
molecule="Cc1nc(F)ccc1Oc1ncc(C(F)(F)F)c(C)c1C(=O)Nc1ccc(F)c([S@](C)(=N)=O)c1 (single isomer, unassigned) [Example 15C]" recordedresult="0.005 to 0.05 µM"
molecule="COc1cc(C#N)ccc1Oc1ncc(-c2cnn(C)c2)c(C)c1C(=O)Nc1cccc([S@](C)(=N)=O)c1 [Example 1C]" recordedresult="0.05 to 0.1 µM"
molecule="Cc1nc(F)ccc1Oc1nc(C2CC2)c(C(F)(F)F)c(C)c1C(=O)Nc1ccnc([S@](C)(=N)=O)c1 [Example 106C]" recordedresult="< 0.005 µM"

Value lookup for IC50; key = Cc1nc(F)ccc1Oc1nc(C(F)(F)F)c(C#N)c(C)c1C(=O)Nc1cccc([S@](C)(=N)=O)c1 [Example 113C] 0.005 to 0.05 µM

# iterate: Cc1nc(F)ccc1Oc1ncc(I)c(C)c1C(=O)Nc1cccc([S@](C)(=N)=O)c1 [Example 122C] 0.005 to 0.05 µM

Same for Cc1nc(F)ccc1Oc1ncc(C(F)F)c(C)c1C(=O)Nc1ccnc([S@@](C)(=N)=O)c1 [Example 114C] > 0.2 µM

Next molecule up: Cc1nc(F)ccc1Oc1nc(C(F)(F)F)c(Cl)c(C)c1C(=O)Nc1ccc(F)c([S@](C)(=N)=O)c1 [Example 95C] < 0.005 µM

Also Cc1nc(F)ccc1Oc1ncc(C(F)F)c(C)c1C(=O)Nc1ccnc(S(C)(=N)=O)c1 (stereo not drawn) [Example 48C] ? > 0.2 µM

Check COc1cc(C#N)ccc1Oc1cc(C(F)(F)F)nnc1C(=O)Nc1cccc(S(C)(=O)=O)c1 [Example 38C] too. 0.1 to 0.2 µM

Another molecule: Cc1nc(F)ccc1Oc1ncc(C(F)(F)F)c(C)c1C(=O)Nc1cccc(C(N)=O)c1 [Example 119C] < 0.005 µM

----------
Recorded pIC50 values for a group of compounds are listed next.
# experimentalTarget: human Nav1.8/b3 (Homo sapiens, UniProt Q9Y5Y9)
# Construct: expressed in transfected cells; host or cells: CHO
# assayComment: Compound Profiling Human NaV1.8/β3 Cell Line—SyncroPatch384PE Assay (automated patch clamp, stably transfected CHO cells)
# Type: cell-based
# testSettings: P2 measurement, inactivated state block; Nav1.8/b3 CHO cells, inactivation step −35 mV 10 sec; third set of compounds; read-out: P2 (IC50, inactivated state block)
pIC50: −log10 of the molar value.

Look over these answered cases.
compound="Cc1nc(F)ccc1Oc1cnc(C(F)(F)F)c(Cl)c1C(=O)Nc1cccc([S@](C)(=N)=O)c1 [Example 45C]" recordedresult="> 8.30"
compound="Cc1nc(F)ccc1Oc1nc(C2CC2)c(C(F)(F)F)c(C)c1C(=O)Nc1cccc([S@@](C)(=N)=O)c1 [Example 107C]" recordedresult="> 8.30"
compound="Cc1nc(F)ccc1Oc1ncc(C(F)(F)F)c(C)c1C(=O)Nc1ccc(F)c(S(C)(=O)=O)c1 [Example 101C]" recordedresult="7.30 to 8.30"

Next up:
Can you share its pIC50? I mean this compound: COc1cc(C#N)ccc1Oc1ncc(-c2ccc(C)cn2)c(C)c1C(=O)Nc1cccc([S@](C)(=N)=O)c1 [Example 22C] 7.00 to 7.30

----------
# experimentalTarget: human Nav1.8/b3 (Homo sapiens, UniProt Q9Y5Y9)
# Construct: expressed in transfected cells; host or cells: CHO
# assayComment: Compound Profiling Human NaV1.8/β3 Cell Line—SyncroPatch384PE Assay (automated patch clamp, stably transfected CHO cells)
# Assay type: cell-based
# testSettings: P1 (IC50, resting state block), P1 measurement, resting state block; Nav1.8/b3 CHO cells, holding potential −120 mV; first set of compounds
readoutKind: IC50

molecule=Cc1nc(F)ccc1Oc1ccc(-c2cnn(C)c2)c(C)c1C(=O)Nc1cccc([S@](C)(=N)=O)c1 recordedresult="> 200 nM"
molecule="Cc1nc(F)ccc1Oc1cc(C(F)(F)F)c(Cl)cc1C(=O)Nc1ccc(C(N)=O)nc1 [Example 64A]" recordedresult="5 to 50 nM"
molecule="Cc1nc(F)ccc1Oc1cc(C(F)(F)F)c(Cl)c(F)c1C(=O)NC12CC(C(N)=O)(C1)C2 [Example 47A]" recordedresult="> 200 nM"
molecule="Cc1nc(F)ccc1Oc1cc(C(F)(F)F)c(Cl)cc1C(=O)Nc1ccc(F)c([S@@+](C)[O-])c1 [Example 56A]" recordedresult="< 5 nM"
molecule=Cc1nc(F)ccc1Oc1cc(C(F)(F)F)c(Cl)cc1C(=O)Nc1cccc([S@](C)(=N)=O)c1 recordedresult="< 5 nM"

Requested read-out: IC50. Entry: C[S@@](=N)(=O)c1cc(NC(=O)c2c(Oc3ccc(OC(F)(F)F)cc3)cc(C(F)(F)F)c(Cl)c2F)ccn1 [Example 45A] < 5 nM

And for Cc1nc(F)ccc1Oc1cc(C(F)(F)F)c(Cl)c(C)c1C(=O)NC12CC(C(N)=O)(C1)C2 [Example 53A] ? > 200 nM

Next record, please: Cc1nc(F)ccc1Oc1cc(C2CC2)c(C(F)(F)F)cc1C(=O)Nc1ccnc([S@@](C)(=N)=O)c1 [Example 57A] < 5 nM

Can you check C[S@@](=N)(=O)c1cc(NC(=O)c2c(F)cc(C(F)(F)F)cc2Oc2ccc(OC(F)(F)F)cc2)ccn1 [Example 44A] next? < 5 nM

Also check Cc1nc(F)ccc1Oc1cc(C(F)(F)F)cc(F)c1C(=O)Nc1ccnc([S@](C)(=N)=O)c1 [Example 40A] 5 to 50 nM

Lookup Cc1nc(F)ccc1Oc1cc(C(F)(F)F)c(Cl)cc1C(=O)Nc1cccc([S@@](C)(=O)=NCCN)c1 [Example 14A] < 5 nM

And Cc1nc(F)ccc1Oc1cc(C(F)(F)F)c(Cl)cc1C(=O)Nc1ccc(F)c(S(C)(=O)=O)c1 [Example 54A] ? < 5 nM

Follow-up item: Cc1nc(F)ccc1Oc1cc(C(F)(F)F)c(Cl)cc1C(=O)Nc1ccc(C(N)=O)cc1 [Example 68A] 5 to 50 nM

Entry Cc1nc(F)ccc1Oc1cc(C(F)(F)F)c(Cl)cc1C(=O)Nc1ccc([S@@](C)(=N)=O)cc1 [Example 48A] please 50 to 100 nM

Now try Cc1nc(F)ccc1Oc1cc(C(F)(F)F)c(Cl)cc1C(=O)NC12CC(C(N)=O)(C1)C2 [Example 63A] . > 200 nM
